In this section, each of the molecules is paired with its reported max response.
Assay: qHTS RealTime-Glo MT Cell Viability Assay in HEK293 cells - 40 hour (AID 1224874); note: % is set by controls: 0 for no effect and ±100 for the full control effect; nearly all actives have a fitted effect of over 50% in size
Conditions: RealTime-Glo luminescence; hits give low values
Inconclusive results are not listed.
ENDPOINT NAME: max response (%)

structure=CCC(=O)O[C@H]1[C@H](O[C@@H]2[C@@H](C)[C@H](O[C@H]3C[C@@](C)(OC)[C@@H](O)[C@H](C)O3)[C@@H](C)C(=O)O[C@H](CC)[C@@](C)(O)[C@H](O)[C@@H](C)C(=O)[C@H](C)C[C@@]2(C)O)O[C@H](C)C[C@@H]1N(C)C endpoint_name="max response" value=-5.5
structure=O=C(O)CCCCCCCCCCCC(=O)O endpoint_name="max response" value=7.31
structure=Cc1ccc(C(C)(C)C)cc1 endpoint_name="max response" value=0.538
structure=CC(=O)[C@H]1CC[C@H]2[C@@H]3CC=C4C[C@@H](O)CC[C@]4(C)[C@H]3CC[C@]12C endpoint_name="max response" value=-23.7
structure=c1ccc2c(c1)[nH]c1ccccc12 endpoint_name="max response" value=-8.89
